Entries and their Number of Adherent Leukocytes
Tested on: leukocyte adherence to the vascular endothelium
Experiment: Leukocyte adherence to the vascular endothelium, intravital microscopy of mesenteric venules
Conditions: intragastric 30 μmol/kg; mean ± SEM
Could you give me the number in per 100 μm vessel length? Just the number is fine.

See these solved cases before continuing.
>>> readout_value("NC(=S)c1ccc(OC(=O)Cc2ccccc2Nc2c(Cl)cccc2Cl)cc1 [Compound XVII]")
2.8
>>> readout_value("O=C(Cc1ccccc1Nc1c(Cl)cccc1Cl)Oc1ccc(-c2cc(=S)ss2)cc1 [Compound II]")
3.0
>>> readout_value("COc1ccc2c(c1)c(CC(=O)Oc1ccc(-c3cc(=S)ss3)cc1)c(C)n2C(=O)c1ccc(Cl)cc1 [Compound IV]")
3.6

Reported Number of Adherent Leukocytes ( O=C(Cc1ccccc1Nc1c(F)cccc1Cl)Oc1ccc(-c2cc(=S)ss2)cc1 [Compound III] ) = 1.7

Reported Number of Adherent Leukocytes ( CC(=O)Oc1ccccc1C(=O)Oc1ccc(C(N)=S)cc1 [Compound XVI] ) = 2.3

Reported Number of Adherent Leukocytes ( Cc1ccc(Nc2c(F)cccc2Cl)c(CC(=O)Oc2ccc(C(N)=S)cc2)c1 [Compound XVIII] ) = 2.3

Reported Number of Adherent Leukocytes ( CC(=O)Oc1ccccc1C(=O)Oc1ccc(-c2cc(=S)ss2)cc1 [Compound I] ) = 2.5
